All figures here come from patent EP0908457B1.

test system: Oryza sativa, (L.) Tebonnet; experiment: Rice tolerance to post-transplant applications under flooded paddy conditions (Example 187), ORYSAT (Rice, Tebonnet); settings: 0.1250 kg/ha, herbicidal effect rating 0-9, three to four weeks after treatment
MEASURE: ORYSAT

- CC(OS(=O)(=O)c1ccccc1)c1nsc2ccc(-n3c(=O)cc(C(F)(F)F)n(C)c3=O)cc12 (stereo not drawn): 5.0
- Cn1c(C(F)(F)F)cc(=O)n(-c2ccc3snc(C(=O)NS(=O)(=O)Cc4ccccc4[N+](=O)[O-])c3c2)c1=O: 0.0
- Cn1c(C(F)(F)F)cc(=O)n(-c2ccc3snc(C(=O)SCc4ccccc4)c3c2)c1=O: 0.0
- CCSC(=O)c1nsc2ccc(-n3c(=O)cc(C(F)(F)F)n(C)c3=O)cc12: 2.0
- CN(Cc1ccc(Cl)cc1)S(=O)(=O)NC(=O)c1nsc2ccc(-n3c(=O)cc(C(F)(F)F)n(C)c3=O)cc12: 3.0
- Cc1ccc(OCC(=O)O)c(-c2noc3cc(F)c(-n4c(=O)cc(C(F)(F)F)n(C)c4=O)cc23)c1: 7.0
- Cn1c(C(F)(F)F)cc(=O)n(-c2ccc3snc(/C=N/Nc4ccccc4)c3c2)c1=O: 2.0
- Cn1c(C(F)(F)F)cc(=O)n(-c2ccc3snc(C(=O)C(C)(C)C)c3c2)c1=O: 6.5
- COC(=O)CN(C(=O)c1nsc2ccc(-n3c(=O)cc(C(F)(F)F)n(C)c3=O)cc12)S(=O)(=O)Cc1ccccc1: 2.0
- C#CCOC(=O)COc1cc2c(cc1-c1nsc3ccc(-n4c(=O)cc(C(F)(F)F)n(C)c4=O)cc13)CCC2: 7.0
- COC(=O)COc1cc2c(cc1-c1nsc3ccc(-n4c(=O)cc(C(F)(F)F)n(C)c4=O)cc13)CCC2: 6.0
- CN(C)/N=C/c1nsc2ccc(-n3c(=O)cc(C(F)(F)F)n(C)c3=O)cc12: 7.0
- COc1ccc(I)cc1-c1nsc2ccc(-n3c(=O)cc(C(F)(F)F)n(C)c3=O)cc12: 4.0
- CN(C(=O)COc1ccccc1-c1nsc2ccc(-n3c(=O)cc(C(F)(F)F)n(C)c3=O)cc12)S(C)(=O)=O: 7.0
- Cn1c(C(F)(F)F)cc(=O)n(-c2ccc3snc(C(=O)Nc4nc(C(F)(F)F)c(Cl)s4)c3c2)c1=O: 0.0
